# melting point annotations
settings: a range is the spread between reports

Observe how each entry below is paired with its result.
| Compound | melting point |
| --- | --- |
| CCN(C(C)C)C(C)C | -50 to -46 °C |
| COc1cccc(C(=O)O)c1 | 103 to 107 °C |
| CCOP(=S)(OCC)Oc1nc(Cl)c(Cl)cc1Cl | 41.5 to 42.5 °C |
| O=C1C=CCO1 | 4 to 4.5 °C |
| CCc1nnc(N)s1 | 200 to 201 °C |

Now consider the entry below.
Looking up `CCCCCCOC=O` , I found its melting point recorded as -63 to -62.6 °C

----------
conditions: a range is the spread between reports
Result type: melting point

Example compounds with recorded melting point:
| Compound | Result type | Result |
| --- | --- | --- |
| CC(CCC(=O)O)(c1ccc(O)cc1)c1ccc(O)cc1 | melting point | 172 to 173 °C |
| CC12CCC3C(CCC4(C)CC5(CCC34C)OCCO5)C1CCC2=O (configuration not stated) | melting point | 158 to 159 °C |
| OCc1ccc(CO)cc1 | melting point | 118 to 119 °C |
| COC(=O)/C=C/C(=O)OC | melting point | 102 to 104 °C |
| Cc1ccccc1CBr | melting point | 19 to 21 °C |

Next:
For record O=C(O)CC(S)C(=O)O (configuration not stated) the listed melting point is 149 to 152 °C

----------
conditions: a range is the spread between reports
Result type: melting point

These recorded examples may help you get a feel for the data.
| Compound | melting point |
| --- | --- |
| COc1ccc(/N=N/c2ccccc2)cc1 | 53 to 56 °C |
| CC(C)CC(C)(C)C | -107 °C |
| COc1cc(CC(=O)O)ccc1O | 143 to 144 °C |
| CCCCCCCCCCc1ccc(N)cc1 | 24 to 25 °C |
| O=[N+]([O-])c1ccccc1CO | 72 to 74 °C |
| O=C(O)c1cc(Cl)cc(Cl)c1 | 186 to 188 °C |
| NCc1ccncc1 | -8 to -7.6 °C |
| ClCBr | -88 to -87.9 °C |
| Brc1cccnc1 | -27.3 to -27 °C |
| OCc1ccccc1 | -15.2 to -15 °C |

Field melting point (entry `NC(=O)Oc1ccccc1` ) reads 150 to 151 °C

Note to self: melting point recorded for `CC(=O)Oc1ccc(-c2ccccc2)cc1` was 88 to 89 °C

# melting point (compound: `COC(=O)c1ccccc1C(=O)OC` ) is 2 to 5.5 °C

Recorded result, `ClC(Cl)C(Cl)Cl` , melting point: -44 to -43 °C

----------
melting point values for the molecules below.
conditions: a range is the spread between reports

Example results:
| Molecule | melting point |
| --- | --- |
| C=C(C)CC(C)C | -124 °C |
| Cc1ccnc(N)c1 | 99 to 100 °C |
| CC(Oc1cccc(Cl)c1)C(=O)O (stereo not given) | 113 to 115 °C |
| CCC1(c2ccccc2)C(=O)NC(=O)NC1=O | 174 to 176 °C |
| COc1ccc(N)c(OC)c1 | 33.5 to 35 °C |
| COC(=O)c1ccccc1O | -9 to -7 °C |

Shifting focus to the molecule that follows.
Per the record, `O=C(O)c1cccc(F)c1F` has melting point of 162 to 164 °C
